// data source = paper PMC4552634

test system: P. falciparum stage V gametocytes; parameters: BacTiter-Glo ATP luminescence viability of purified stage V gametocytes in 384-well plates, per cent inhibition versus DMSO; details: 48 h, 5 µM; inhibitor
Hit rate of the full screen: of about 13,000 compounds, about 3,200 (25%) showed an effect of 50% or more. The list shows a part of the results.
Reported metric: % Inhibition (%)
Respond numerically; units are % and should not be typed.

{"Compound": "CCc1nc(N)nc(N)c1-c1cccc(Cl)c1", "% Inhibition [%]": -15}

QUERY: Report value only: % Inhibition, P. falciparum stage V gametocytes, c1ccc(Nc2nc(-c3ccccn3)cs2)nc1
RESULT: 108.4

QUERY: Report value only: % Inhibition, P. falciparum stage V gametocytes, Cc1ccoc1C(=O)Nc1ccc(-c2cccc(-c3nc4c(C)cccc4[nH]3)c2)cc1
RESULT: -21.37

QUERY: Report value only: % Inhibition, P. falciparum stage V gametocytes, COc1nc(-n2ccc(=N)cc2)nc2ccccc12
RESULT: 8.489

QUERY: Report value only: % Inhibition, P. falciparum stage V gametocytes, Cc1cccc(C(O)CNc2ccnc(Nc3cccc(-c4csc(C)n4)c3)n2)c1 (stereo not shown)
RESULT: -28.27

QUERY: Report value only: % Inhibition, P. falciparum stage V gametocytes, Cc1cccc2[nH]c(-c3cccc(-c4cccc(NC(=O)C5CC(=O)Nc6ccccc65)c4)c3)nc12 (stereo not shown)
RESULT: 79.84

QUERY: Report value only: % Inhibition, P. falciparum stage V gametocytes, CC(=O)Nc1nc(C(=O)Nc2cccc(-c3ccc(-c4nc5c(C)cccc5[nH]4)cc3)c2)cs1
RESULT: 80.9

QUERY: Report value only: % Inhibition, P. falciparum stage V gametocytes, Cc1nc(N)nc(N)c1OCCCCCCOc1ccccc1
RESULT: -4.555

QUERY: Report value only: % Inhibition, P. falciparum stage V gametocytes, Cc1ccnc(Nc2nc(-c3ccccn3)cs2)c1
RESULT: 115.7

QUERY: Report value only: % Inhibition, P. falciparum stage V gametocytes, COc1cc2nc(NCC3CCCO3)n3nc(-c4ccccc4)nc3c2cc1OC (stereo not shown)
RESULT: -4.624

QUERY: Report value only: % Inhibition, P. falciparum stage V gametocytes, O=C1CC(C(=O)Nc2cccc(-c3cccc(-c4nc5ccccc5[nH]4)c3)c2)c2ccccc2N1 (stereo not shown)
RESULT: 26.75

QUERY: Report value only: % Inhibition, P. falciparum stage V gametocytes, CC(=O)Nc1ccc(C(=O)Nc2cccc(-c3ccc(-c4nc5cc(F)ccc5[nH]4)s3)c2)cn1
RESULT: -51.51

QUERY: Report value only: % Inhibition, P. falciparum stage V gametocytes, CCN1CCC(NCc2ccc(-c3ccc(Cl)cc3)cc2)CC1
RESULT: 41.97

====

% Inhibition overview
tested on: P. falciparum stage V gametocytes; design: BacTiter-Glo ATP luminescence viability of purified stage V gametocytes in 384-well plates, per cent inhibition versus DMSO; details: 48 h, 5 µM; inhibitor
Hit rate of the full screen: of about 13,000 compounds, about 3,200 (25%) showed an effect of 50% or more. Some of the results follow.
Respond numerically; units are % and should not be typed.

{"Compound": "COc1ccc(NCc2cccc(-c3cccc(CNCCc4ccccc4)c3)c2)cc1 [TCMDC-140485]", "% Inhibition (%)": -4.016}

QUERY: For the compound CCN(CC)CCCC(C)Nc1c2ccccc2nc2ccc3ccccc3c12 (centres unmarked) [TCMDC-137518] , give its measured % Inhibition value.
RESULT: 45.6

QUERY: For the compound CCN(CC)CCCC(C)Nc1c2ccc(Cl)cc2nc2ccc(OC)cc12 (centres unmarked) [TCMDC-125480] , give its measured % Inhibition value.
RESULT: 101

QUERY: For the compound COCCNCc1ccc(-c2ccc(CNC3CCN(Cc4ccccc4)CC3)cc2)cc1 [TCMDC-140490] , give its measured % Inhibition value.
RESULT: 23.65

QUERY: For the compound COc1cccc(CNC[C@@H](O)[C@H](Cc2ccccc2)NC(=O)c2cc(C(C)C)cc(N3CCCC3=O)c2)c1 [TCMDC-134130] , give its measured % Inhibition value.
RESULT: 14.96

QUERY: For the compound CCN(CC)CCCC(C)Nc1ccnc2[nH]c3ccccc3c12 (centres unmarked) [TCMDC-131826] , give its measured % Inhibition value.
RESULT: 12.54

QUERY: For the compound CCN(CC)CCCC(C)Nc1c2cc(OC)ccc2nc2cc(Cl)c([N+](=O)[O-])cc12 (centres unmarked) [TCMDC-138329] , give its measured % Inhibition value.
RESULT: -1.262

QUERY: For the compound COCCNCc1cccc(-c2ccc(CNC3CCN(Cc4ccccc4)CC3)cc2)c1 [TCMDC-140489] , give its measured % Inhibition value.
RESULT: 85.27

QUERY: For the compound CCN(CC)CCCC(C)Nc1c2ccccc2nc2c1ccc1ccccc12 (centres unmarked) [TCMDC-137517] , give its measured % Inhibition value.
RESULT: 51.71

QUERY: For the compound COCCNCc1cccc(-c2cccc(CNC3CCN(Cc4ccccc4)CC3)c2)c1 [TCMDC-140481] , give its measured % Inhibition value.
RESULT: 99.88

QUERY: For the compound COc1cccc(CCNCc2ccc(-c3cccc(CNC4CCCC4)c3)cc2)c1 [TCMDC-140493] , give its measured % Inhibition value.
RESULT: 66.56

QUERY: For the compound CCOC(=O)c1ccc(NC(=O)N(Cc2ccc(-c3cccc(CN4CCNCC4)c3)cc2)C2CCN(Cc3ccccc3)CC2)cc1 [TCMDC-139636] , give its measured % Inhibition value.
RESULT: 111.5

QUERY: For the compound Cc1ccccc1C1CCN(C2CCC(NC(=O)c3ccc4c(c3)-c3nocc3C(C)O4)CC2)CC1 (centres unmarked) [TCMDC-134101] , give its measured % Inhibition value.
RESULT: -36.23

QUERY: For the compound CCOC(=O)c1ccc(NC(=O)N(Cc2ccc(-c3ccc(CN4CCNCC4)cc3)cc2)Cc2cccnc2)cc1 [TCMDC-139650] , give its measured % Inhibition value.
RESULT: 18.76

QUERY: For the compound COCCNCc1ccc(-c2cccc(CNc3ccc(OC)cc3)c2)cc1 [TCMDC-140484] , give its measured % Inhibition value.
RESULT: -1.116

QUERY: For the compound O=C(NC1CCCCCC1)[C@@H]1CCCN1C(=O)c1ccc(O)c(-c2ccc(Cl)c(Cl)c2)c1 [TCMDC-140843] , give its measured % Inhibition value.
RESULT: 28.6

QUERY: For the compound N#Cc1ccc(NC(=Nc2ccccc2Br)N(C2CCCCC2)C2CCCCC2)c(O)c1 [TCMDC-140131] , give its measured % Inhibition value.
RESULT: -34.98
